- Tested on: 817829-284-R-J1-PDC complex spheroids, viability;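 further: spheroids exposed to agents for 7 days before readout; percent viability relative to DMSO vehicle control taken as 100%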
- experimental details: Anticancer human tumor 817829-284-R-J1-PDC patient-derived colon adenocarcinoma cell line growth inhibition [GQUAD]; active means viability on the fitted dose curve at most 10% of control; inactive means the rest
- experimental setup: second compound 1 µM; first compound 0.316 µM
Pick from 1 = active, -1 = inactive when you respond.

Challenge: Test call, this compound: CC(C)(O)C1CCC(Nc2ccc3ncc(-c4cccc(C(F)(F)F)c4)n3n2)CC1 (stereo unspecified) + CN(C)c1ccc(Nc2c3ccc(NC(=O)CCN4CCCC4)cc3nc3cc(NC(=O)CCN4CCCC4)ccc23)cc1
Response given: -1

Challenge: What classification did O=C(NO)c1cnc(N2CCN(S(=O)(=O)c3ccc4ccccc4c3)CC2)nc1 + CN(C)c1ccc(Nc2c3ccc(NC(=O)CCN4CCCC4)cc3nc3cc(NC(=O)CCN4CCCC4)ccc23)cc1 end up with in this test?
Response given: 1

Challenge: Which result was noted for this compound in the test: C=CC(=O)N1CCN(c2nc(=O)n(-c3c(C)ccnc3C(C)C)c3nc(-c4c(O)cccc4F)c(F)cc23)C(C)C1 (stereo unspecified) + CN(C)c1ccc(Nc2c3ccc(NC(=O)CCN4CCCC4)cc3nc3cc(NC(=O)CCN4CCCC4)ccc23)cc1
Response given: -1

Challenge: What outcome does the record of this test show for C=CCn1c(=O)c2cnc(Nc3ccc(N4CCN(C)CC4)cc3)nc2n1-c1cccc(C(C)(C)O)n1 + Cc1cnc(CNC(=O)c2c(=O)c3ccc(N4CCCN(C)CC4)nc3n3c2sc2ccccc23)cn1 ?
Response given: -1

Challenge: Query: recorded result category for COc1cc(C2c3cc4c(cc3C(OC3OC5COC(C)OC5C(O)C3O)C3COC(=O)C23)OCO4)cc(OC)c1O (stereo unspecified) + Cc1cnc(CNC(=O)c2c(=O)c3ccc(N4CCCN(C)CC4)nc3n3c2sc2ccccc23)cn1 in this test
Response given: -1

Challenge: // outcome(item) with item = COc1cc(C2c3cc4c(cc3C(OC3OC5COC(C)OC5C(O)C3O)C3COC(=O)C23)OCO4)cc(OC)c1O (stereo unspecified) + CN(C)c1ccc(Nc2c3ccc(NC(=O)CCN4CCCC4)cc3nc3cc(NC(=O)CCN4CCCC4)ccc23)cc1
Response given: -1

Challenge: What did the test return for COc1cc(C2c3cc4c(cc3C(OC3OC5COC(C)OC5C(O)C3O)C3COC(=O)C23)OCO4)cc(OC)c1O (stereo unspecified) + Cc1[nH]c2ccc(F)cc2c1-c1nc2c3cccnc3c3ncccc3c2[nH]1 ?
Response given: -1

Challenge: Test call, this compound: CC1COCCN1c1cc(C2(O)CC3CCC(C2)O3)c2cnn(-c3ccn[nH]3)c2n1 (stereo unspecified) + Cc1cnc(CNC(=O)c2c(=O)c3ccc(N4CCCN(C)CC4)nc3n3c2sc2ccccc23)cn1
Response given: 1

Challenge: Entry CC1COCCN1c1cc(C2(S(C)(=N)=O)CC2)nc(-c2ccnc3[nH]ccc23)n1 (stereo unspecified) + Cc1cnc(CNC(=O)c2c(=O)c3ccc(N4CCCN(C)CC4)nc3n3c2sc2ccccc23)cn1 : call = ?
Response given: -1

Challenge: Each compound tested received a call. Report the one for Cc1[nH]c2ccccc2c1CCNCc1ccc(/C=C/C(=O)NO)cc1 + Cc1[nH]c2ccc(F)cc2c1-c1nc2c3cccnc3c3ncccc3c2[nH]1 .
Response given: 1

Challenge: // return assay outcome for CC1COCCN1c1cc(C2(S(C)(=N)=O)CC2)nc(-c2ccnc3[nH]ccc23)n1 (stereo unspecified) + CN(C)c1ccc(Nc2c3ccc(NC(=O)CCN4CCCC4)cc3nc3cc(NC(=O)CCN4CCCC4)ccc23)cc1
Response given: -1

Challenge: Look up the recorded call for CCc1c2c(nc3ccc(O)cc13)-c1cc3c(c(=O)n1C2)COC(=O)[C@]3(O)CC + Cc1cnc(CNC(=O)c2c(=O)c3ccc(N4CCCN(C)CC4)nc3n3c2sc2ccccc23)cn1 in this test.
Response given: 1

Challenge: So what was the verdict on CC1COCCN1c1cc(C2(O)CC3CCC(C2)O3)c2cnn(-c3ccn[nH]3)c2n1 (stereo unspecified) + CN(C)c1ccc(Nc2c3ccc(NC(=O)CCN4CCCC4)cc3nc3cc(NC(=O)CCN4CCCC4)ccc23)cc1 in this test?
Response given: 1

Challenge: Per the assay record, what outcome was assigned to CC1COCCN1c1cc(-c2ccnn2C)c2ccnc(-c3ccn[nH]3)c2n1 (stereo unspecified) + CN(C)c1ccc(Nc2c3ccc(NC(=O)CCN4CCCC4)cc3nc3cc(NC(=O)CCN4CCCC4)ccc23)cc1 ?
Response given: 1

Challenge: Record lookup: outcome of this test for COc1ccc([C@@H](O)c2cc(-c3ncnc4cc(N5CCOCC5)ccc34)c(F)cc2Cl)nn1 + Cc1cnc(CNC(=O)c2c(=O)c3ccc(N4CCCN(C)CC4)nc3n3c2sc2ccccc23)cn1 ?
Response given: -1

Challenge: Would you mind telling me which call this test gave C#Cc1c(F)ccc2cc(O)cc(-c3ncc4c(N5CC6CCC(C5)N6)nc(OCC56CCCN5CC(F)C6)nc4c3F)c12 (stereo unspecified) + CN(C)c1ccc(Nc2c3ccc(NC(=O)CCN4CCCC4)cc3nc3cc(NC(=O)CCN4CCCC4)ccc23)cc1 ?
Response given: -1

Challenge: Please indicate how the test categorized O=C(NO)c1cnc(N2CCN(S(=O)(=O)c3ccc4ccccc4c3)CC2)nc1 + Cc1[nH]c2ccc(F)cc2c1-c1nc2c3cccnc3c3ncccc3c2[nH]1 .
Response given: 1

Challenge: For O=c1[nH]cc(F)c(=O)[nH]1 + CN(C)c1ccc(Nc2c3ccc(NC(=O)CCN4CCCC4)cc3nc3cc(NC(=O)CCN4CCCC4)ccc23)cc1 , what call appears in the results of this test?
Response given: -1

Challenge: Which outcome was entered for the compound COc1cccc2c1C(=O)c1c(O)c3c(c(O)c1C2=O)CC(O)(C(=O)CO)CC3OC1CC(N)C(O)C(C)O1 (stereo unspecified) + Cc1[nH]c2ccc(F)cc2c1-c1nc2c3cccnc3c3ncccc3c2[nH]1 in this test?
Response given: -1

Challenge: What did the test return for O=C(c1cc(Cc2n[nH]c(=O)c3ccccc23)ccc1F)N1CCN(C(=O)C2CC2)CC1 + CN(C)c1ccc(Nc2c3ccc(NC(=O)CCN4CCCC4)cc3nc3cc(NC(=O)CCN4CCCC4)ccc23)cc1 ?
Response given: -1

Challenge: Outcome logged for O=C(c1cc(Cc2n[nH]c(=O)c3ccccc23)ccc1F)N1CCN(C(=O)C2CC2)CC1 + Cc1cnc(CNC(=O)c2c(=O)c3ccc(N4CCCN(C)CC4)nc3n3c2sc2ccccc23)cn1 in this assay:
Response given: -1
